These data points were gathered from ChEMBL document CHEMBL1201862.

# Tested on: M14
# test_summary: NCI tumour cell line growth inhibition, 48 h
Activity calls are given as the source filed them. Rule as the data show it: active = GI50 up to about 1.1 µM and inactive = higher.
Pick from class 1 (active), class 0 (inactive) when you respond.

The examples below pair each entry with its known result.
Hi, sorry to bother you, what did the test record for COc1ccc(C2CC(c3c(C)nn(-c4ccccc4)c3-c3ccc(C)cc3O)=NN2c2ccccc2)cc1 (configuration not stated) ?
class 0

Record: S=C(NCc1ccccc1)N/N=C/c1ccccn1
class 1

Can you handle CC(=O)N1CC(C)(C)c2c1cc(C)c(O)c2C next?
class 0

Again, but for Nc1ccc(Oc2ccc(C34CC5CC6C3CC3CC4C(C5)C6(c4ccc(Oc5ccc(N)c(O)c5)cc4)C3)cc2)cc1O
class 0

// repeat for C=CCC(CNC(=O)OCc1ccccc1)OC(=O)OCc1ccccc1 (configuration not stated) and report
class 0

What would you report for CN1C2CCC1CC(CCOC(c1ccc(F)cc1)c1ccc(F)cc1)C2 (configuration not stated) ?
class 0

Field entry: CCOC(=O)c1c(Cl)nc2ccccc2c1N=[N+]=[N-]
class 0

Another compound to look at: Clc1ccc(C2=NOC(C3CCCCC3)C2)cc1 (configuration not stated)
class 0

New cases:
Which outcome was assigned to O=C1CCCCC1C1(O)C(=O)Nc2cc(F)ccc21 (configuration not stated) in this test?
class 0

Same lookup for O=C1CCCCC/C1=C\c1cccc([N+](=O)[O-])c1 , please.
class 0

Could you do the same for O=C(CCc1ccc(O)cc1)NCCc1cccc(O)c1 , please?
class 0

Now this one: N/C(=N\c1ccc(Cl)cc1)NS(=O)(=O)c1cccc2nsnc12
class 0

---

# Test system: SK-MEL-28
# test_summary: NCI tumour cell line growth inhibition, 48 h
The source made the active and inactive calls. Rule as the data show it: active = GI50 up to about 1.1 µM and inactive = higher.
Valid outcomes are listed here; reply with one: Yes (active), No (inactive)

For this compound, state the assay outcome: COc1ccc2cc(C(=O)NCCCNC(=O)c3ccc4cc(OC)ccc4c3)ccc2c1
No

New cases:
Test call, this compound: COc1ccc(/C=N/NS(=O)(=O)c2ccc(/C=C3\NC(=O)NC3=O)cc2)cc1
No

And for O=C(Cc1ccccc1)NNc1nc(NNC(=O)c2ccncc2)nc(Nc2ccc(Cl)cc2)n1 ?
No

Follow-up entry: C=CC(Br)(CBr)CCC(Br)C(C)C (stereo not given)
No

Next entry: C#CCNC(=O)NC(CCCNC(=O)OCc1ccccc1)C(=O)OCc1ccccc1 (stereo not given)
No

Now this one: O=[N+]([O-])C(/C=C(\Cl)[N+](=O)[O-])=C(N1CCCCC1)N1CCCCC1
No

Now consider O=[N+]([O-])c1ccc(Cl)cc1C1ON=C(c2ccccc2)N1C12CC3CC(CC(C3)C1)C2 (stereo not given) .
No

And for CC1=CCS(=O)(=O)C1C(O)C1=C(C)CCCC1(C)C (stereo not given) ?
No

Same thing, different compound: Cc1sc2nc(-c3ccc(Cl)c([N+](=O)[O-])c3)c(/C=N/NC(=N)N)n2c1C
Yes

Another: O=C(/C=C/c1ccccc1)Oc1ccc(C(=O)/C=C/c2ccccc2)cc1
No

---

# Test system: OVCAR-8
# test_summary: NCI tumour cell line growth inhibition, 48 h
Activity calls are given as the source filed them. Cut-off read from the data, not from the text of the source: active = GI50 up to about 1.1 µM and inactive = higher.
Give one outcome, nothing more. List: TRUE = active, FALSE = inactive

Answered examples (3):
What call does the record list for O=C1CCCc2c(O)ccc(O)c21 ?
FALSE

Request: COc1cc(CNC2c3cc4c(cc3C(c3cc(OC)c(OC)c(OC)c3)[C@H]3C(=O)OCC23)OCO4)cc(OC)c1OC (stereo partly specified)
TRUE

Now consider COc1cc(C(=O)CC2OC(=O)C(Cl)=C2Cl)ccc1Cl (stereo unspecified) and answer again.
FALSE

Further cases:
Given COC(O)C(=O)c1c2c(cc3c1CC1(Cc4cc5c(cc4C1)CCC5)C3)CCC2 (stereo unspecified) , state the outcome it received in this test.
FALSE

Same question for CN1CCN(Cc2ccccc2)CC1CC#N (stereo unspecified) please.
FALSE

What do you get for C[N+](C)(C)CC1CCC(C[N+](C)(C)C)C1=NO (stereo unspecified) ?
FALSE

Also need CC12c3c4ccc(C=O)c3Oc3ccc(C=O)c(c31)Oc1ccc(C=O)c(c12)O4 , thanks.
FALSE

Another molecule to check: NC(=O)CN(CC(N)=O)C(N)=O
FALSE

Queued: N#Cc1[nH]c(=O)n(-c2cccc3ccccc23)c1N
FALSE

Another molecule to look at: Cn1c(S)nnc1CNc1ccc(-c2nnc(S)n2C)cc1
FALSE

Also O=C1NC(N2CCOCC2)=N/C1=C\c1ccc(Cl)cc1 ?
FALSE
